Assay: Clearance in Balb/c mouse at 1 mg/kg, iv formulated with 5:25:70 DMA/PEG400/20% SBECD
Format: ADME, organism-based
Conditions: in vivo
readout.label: clearance (mL/min/kg)
Answer with a number only, understood to be in mL/min/kg.

State the recorded clearance for this entry: COc1cc(C)[nH]c(=O)c1CNC(=O)c1c(C)n([C@H](C)C2CCN(CC(F)F)CC2)c2ccccc12
74.2

###

Target: UniProt:Q15910
Sequence (Q15910 whole entry): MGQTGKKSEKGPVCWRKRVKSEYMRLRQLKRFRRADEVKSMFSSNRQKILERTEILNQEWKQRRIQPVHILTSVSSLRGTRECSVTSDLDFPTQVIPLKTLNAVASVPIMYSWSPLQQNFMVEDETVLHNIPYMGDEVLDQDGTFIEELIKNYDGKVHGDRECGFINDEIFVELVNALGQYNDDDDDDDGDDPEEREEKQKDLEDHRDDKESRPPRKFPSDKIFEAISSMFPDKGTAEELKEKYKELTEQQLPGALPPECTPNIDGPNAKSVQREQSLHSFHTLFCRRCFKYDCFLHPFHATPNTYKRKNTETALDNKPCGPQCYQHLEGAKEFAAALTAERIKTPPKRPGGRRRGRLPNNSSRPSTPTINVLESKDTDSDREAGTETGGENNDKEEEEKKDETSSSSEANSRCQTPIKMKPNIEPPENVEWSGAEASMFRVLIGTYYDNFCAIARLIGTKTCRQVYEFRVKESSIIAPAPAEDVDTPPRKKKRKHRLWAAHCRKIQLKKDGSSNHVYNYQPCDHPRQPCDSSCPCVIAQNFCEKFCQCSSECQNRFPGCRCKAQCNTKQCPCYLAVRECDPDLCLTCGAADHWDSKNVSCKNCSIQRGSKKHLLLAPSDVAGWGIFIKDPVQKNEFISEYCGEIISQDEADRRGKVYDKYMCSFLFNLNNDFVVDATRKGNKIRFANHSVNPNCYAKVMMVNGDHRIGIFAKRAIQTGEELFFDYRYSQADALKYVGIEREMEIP
Test: Inhibition of wild-type EZH2 in PRC2 complex (unknown origin) using RKQLATKAARK(Me3)SAPATGGVKKP-NH2 peptide substrate preincubated for 30 mins followed by addition of [3H]-SAM measured after 2 hrs by Topcount scintillation proximity assay
For each entry below, report its IC50 value.

Dear colleague, I am looking for the recorded IC50 of the following compound: CCOC(=O)CN1CCC([C@@H](C)n2c(C)c(C(=O)NCc3c(OC)cc(C)[nH]c3=O)c3ccccc32)CC1
< 1 nM

Entry COc1cc(C)[nH]c(=O)c1CNC(=O)c1c(C)n([C@H](C)C2CCN(C3COC3)CC2)c2ccccc12 please
< 1 nM

For COc1cc(C)[nH]c(=O)c1CNC(=O)c1c(C)n([C@H](C)C2CCNCC2)c2ccccc12 then?
2 nM

What would you report for COc1cc(C)[nH]c(=O)c1CNC(=O)c1c(C)n([C@H](C)C2CCN(C(=O)OC(C)C)CC2)c2ccccc12 ?
< 1 nM

// query: COc1cc(C)[nH]c(=O)c1CNC(=O)c1c(C)n([C@H](C)C2CCN(C)CC2)c2ccccc12
< 1 nM

Likewise for COc1cc(C)[nH]c(=O)c1CNC(=O)c1c(C)n([C@H](C)C2CCN(C(=O)C(C)C)CC2)c2ccccc12 ?
2.5 nM

Also need COc1cc(C)[nH]c(=O)c1CNC(=O)c1c(C)n([C@H](C)C2CCN(CC(F)(F)C(F)F)CC2)c2ccccc12 , thanks.
1.6 nM

What about this compound? COc1cc(C)[nH]c(=O)c1CNC(=O)c1c(C)n([C@H](C)C2CCN(C(=O)N(C)C)CC2)c2ccccc12
3.3 nM

Attribution: ChEMBL document CHEMBL4765232
